Tested on: NCI-H23
Test: NCI tumour cell line growth inhibition, 48 h
Calls of active or inactive are those of the source. Cut-off read from the data, not from the text of the source: active = GI50 up to about 1.1 µM and inactive = higher.
REPORTED METRIC: GI50

Lab note: need GI50 with NCI-H23 for entry N#Cc1nc(/C=C/c2nc(C#N)c(N)o2)oc1N , please look it up.
> 10 µM (inactive)

Reported GI50 for NCI-H23, given c1ccc2c(c1)CCc1c(-c3ccncc3)n[nH]c1-2 ?
19.4 µM (inactive)

Find the measured GI50: item CN(C)CCNC(=O)c1c2ccccc2cc2ccccc12 , target or system NCI-H23.
41.4 µM (inactive)

Could you now consider this next molecule?
Return GI50 measured with NCI-H23 given this molecule: Cc1cnc2c(c1C)C(=O)c1ccccc1C2=O
44.7 µM (inactive)
